// data source = ChEMBL document CHEMBL4130544

- Tested On: Alpha glucosidase (Homo sapiens, UniProt O43451+P10253+P14410+Q2M2H8)
- Test Summary: Inhibition of alpha-glucosidase (unknown origin) at 400 uM using p-NPG as substrate pretreated for 10 mins followed by substrate addition measured after 5 mins
- Assay type: protein assay
Activity calls are given as the source filed them. The calls are words filed in the database; no cut-off is given here.
Please answer using one outcome listed in YES (active), NO (inactive)

IN: Assay result, entry CCO[C@@H](c1cc(OC)c(OC)cc1OC)[C@@H](C)O — outcome?
OUT: YES

IN: Tell me the recorded outcome of this test for COc1cc(OC)c([C@@H]2[C@@H](C)[C@H](c3cc(OC)c(OC)cc3OC)O[C@@H]2C)cc1OC (racemic) .
OUT: YES

IN: Call for entry COc1cc([C@H]2OC[C@H]3[C@@H]2CO[C@@H]3c2ccc(O)c(OC)c2)ccc1O (racemic) :
OUT: YES

IN: Which result was noted for this molecule in the test: CCO[C@H](c1cc(OC)c(OC)cc1OC)[C@@H](C)O
OUT: YES

IN: Could you please tell me the result logged for COc1ccc(CCCO)cc1OC in this assay?
OUT: YES

IN: Lab log entry: COc1cc(OC)c(C(O)C(C)=O)cc1OC (stereo not given) — outcome as called in the assay?
OUT: YES

IN: Per the records of this test, what outcome belongs to CCO[C@@H](c1cc(OC)c(OC)cc1OC)[C@H](C)O ?
OUT: YES

IN: How was CCO[C@H](c1cc(OC)c(OC)cc1OC)[C@H](C)O classified in this test?
OUT: YES

IN: What classification did COc1cc(OC)c([C@H](C)C(OC)OC)cc1OC end up with in this test?
OUT: YES

IN: Can you look up the reported call for COc1cc([C@H]2Oc3c(OC)cc(CCCO[C@@H]4O[C@H](CO)[C@@H](O)[C@H](O)[C@H]4O)cc3[C@@H]2CO)ccc1O for me?
OUT: YES

IN: Name the outcome recorded for COc1cc(OC)c(OC)cc1C=O in the assay.
OUT: YES

IN: Just curious, what result did COc1cc(OC)c([C@H](OC)[C@@H](C)O)cc1OC get here?
OUT: NO

IN: Hello, I am checking results. What call was entered for COc1cc(OC)c([C@@H](OC)[C@H](C)O)cc1OC ?
OUT: YES

IN: Tell me the recorded outcome of this test for COc1cc(OC)c([C@H](O)[C@@H](C)O)cc1OC (relative stereo) .
OUT: YES

IN: # outcome recorded in this test, key = COc1cc(OC)c([C@H](OC)[C@H](C)O)cc1OC
OUT: YES

IN: Lab log entry: COc1cc(OC)c([C@@H](C)C(OC)OC)cc1OC — outcome as called in the assay?
OUT: YES

IN: Hi, sorry to bother you, what did the test record for COc1cc([C@H]2Oc3c(OC)cc(CCCO)cc3[C@@H]2CO[C@@H]2O[C@H](CO)[C@@H](O)[C@H](O)[C@H]2O)ccc1O ?
OUT: YES

IN: Outcome? COc1cc(OC)c(C(C)=O)cc1OC
OUT: YES

IN: Could you check what this test reported for COc1cc(OC)c([C@@H](O)[C@@H](C)O)cc1OC (relative stereo) ?
OUT: YES

IN: Outcome logged for COc1cc(OC)c([C@@H](OC)[C@@H](C)O)cc1OC in this assay:
OUT: YES
